I'd appreciate it if you could supply growth values for the items below.
System: SF-539 CNS
test_summary: NCI-60 one-dose screen, 48 h (100 = growth as untreated, 0 = no growth, -100 = all killed)
condition_set: 10 µM unless noted
Compounds without any hit were thinned out: in the full panel of roughly 83,000, 20% have a hit.
// note: answer is a bare numeric in %

Look up growth: CN(C)CCCC1(c2ccc(F)cc2)OCc2cc(-c3ccc4cc[nH]c4c3)ccc21 (stereo not drawn)
67.8

Now this one: CC1=CCC(OC(=O)C(C)(C)CC(O)(C(C)O)C(O)C2(C)C=CC(Cc3ccc(C(C)C)cc3)(C(C)C)CC2)(C(C)C)CC1 (stereo not drawn)
93.3

Now this one: C=C1C(=O)O[C@H]2[C@H]1CC/C(COC(=O)c1ccc(C(=O)O)s1)=C\CC[C@@]1(C)O[C@@H]21
-25.7

Now this one: CCOC(=O)C1=C(C)/C(=C\c2[nH]c(C)c(C(=O)OCC)c2C)N=C1C
101

Now this one: C=C(C)[C@@H]1CC[C@]2(C(=O)N3CCN(C)CC3)CC[C@]3(C)[C@H](CC[C@@H]4[C@@]5(C)CC[C@H](OC(=O)c6ccccc6C(=O)O)C(C)(C)[C@@H]5CC[C@]43C)[C@@H]12
97.6

Now this one: CC(=O)OC(c1ccccc1)C1CCOC1=O (stereo not drawn)
101

Now this one: CO[C@H]1CC(=O)n2c3ccccc3c3c4c(c5c6ccccc6n1c5c32)C(=O)NC4=O
57

Now this one: CC1=C2[C@@H](CC1)[C@]1(C)O[C@@](c3ccccc3)(C[C@H]1OC(=O)CO)[C@H]2OC(=O)/C=C/c1ccccc1
111

Now this one: C=Cc1cnc(Nc2ccc(OC)cc2)nc1NCCCNC(=O)C1CCC1
22

Now this one: O=c1c2ccccc2c(=O)c2c1sc1c(=O)c3ccc(O)cc3c(=O)c12
-97.1

Now this one: CN1C(=O)/C(=C/c2ccc(C(=O)Nc3ncc(Cc4cccc(Cl)c4)s3)cc2)SC1=S
67.5

Now this one: COc1ccc2c(c1)c(/C(O)=C1\COC(=O)C1=O)cn2Cc1ccc(F)cc1
102

Now this one: Fc1cccc(-c2ccc3c(c2)C2(CCNCC2)CN3)c1
98.8

Now this one: Nc1[nH]n2cc(-c3ccc(F)cc3)nc2c1N=Nc1ccc(S(N)(=O)=O)cc1
72.5

Now this one: N#Cc1c(-c2ccccc2)nc(SCc2nnc(-c3ccc(Cl)cc3)o2)[nH]c1=O
104

Now this one: Cc1ccc(-c2nc(N3CCNCC3)c3oc(-c4ccc(C)cc4)nc3n2)cc1
95.8

Now this one: CCCCCCCCCCCCCCCCCC1=NC(C)(C)CN1CC(C)O (stereo not drawn)
19.9

Now this one: N#C/C(=C\c1cn(Cc2ccccc2)c2ccccc12)C(=O)Nc1ncc(Cc2ccccc2Cl)s1
13.5
